method-summary: qHTS Assay for Lipid Storage Modulators in Drosophila S3 Cells
experimental-parameters: BODIPY lipid droplet fluorescence, 18-24 h, cells fed with added oleic acid; series mostly up to 46.1 µM
Out of some 320,000 compounds screened, about 2,100 (0.66%) were called active. About 53% were inconclusive and are not listed. Calls follow the shape of the dose curve; as a rule, active = well fitted inhibition curve with a large enough effect in the signal ratio, with a control signal flat (not every such curve was filed as active); inconclusive = small, poorly fitted or top-dose-only effect, or effect the other way, or a change in a side signal; inactive = flat fitted curve, though single readings scatter; the % refers to the signal ratio. The entries come from a sample that favours actives as a whole.
# output must be one of 1 (yes) = active, 0 (no) = inactive

smiles_notation=CN1CCC(NC(=O)Nc2ccc(Br)cc2)CC1 group="0 (no)"
smiles_notation=Cc1nc2ccc(NS(=O)(=O)c3ccccc3F)cc2s1 group="0 (no)"
smiles_notation=Cc1ccc(S(=O)(=O)Nc2ccc3nc(N)sc3c2)cc1 group="0 (no)"

Q) Record request — test call for Cc1nc2ccc(NS(=O)(=O)c3ccc(F)cc3F)cc2s1
A) 1 (yes)

Q) Any idea what this test logged for COc1cc(C)nc(NCc2ccccc2)n1 ?
A) 0 (no)

Q) What did this assay record as the result for Cc1nc2ccc(NS(=O)(=O)c3ccc(F)cc3)cc2s1 ?
A) 0 (no)

Q) Recorded call for Cc1cc(Oc2ccccc2)nc(NCc2ccccc2)n1 ?
A) 0 (no)

----------
method-summary: qHTS Assay for Lipid Storage Modulators in Drosophila S3 Cells;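 as to cell number change: cells counted by Cell Tracker Red CMTPX staining in the red channel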
experimental-parameters: BODIPY lipid droplet fluorescence, 18-24 h, cells fed with added oleic acid; measured here: cell count max response
Hit rate of the full screen: of about 320,000 compounds, about 2,100 (0.66%) were called active. Not shown: some 53% with an inconclusive outcome. Many of the other results were omitted from the sample, so actives are more common in it than they were.
reported-property: cell number change (%)
Field format: number, assumed %, no unit text.

molecule=O=C(CN1C(=O)CCS(=O)(=O)c2ccccc21)Nc1cccc(Cl)c1 reported_property="cell number change" unit_label=% value_reported=-9.4

Q) Note down cell number change recorded for CCN(CC)S(=O)(=O)c1cccc(C(=O)NC2=NCCS2)c1
A) -2.91

Q) Supply reported cell number change belonging to this molecule: Cc1ccc(C(=O)N2CCN(c3ccc(NC(=O)c4cccnc4)cc3)CC2)cc1
A) 4.57

Q) Specify reported cell number change for the molecule shown: CCc1ccc(NC(=O)CN2C(=O)CC(C)S(=O)(=O)c3ccccc32)cc1 (stereo not given)
A) 4.2

Q) Using known records, supply cell number change for COc1ccc(NC(C)=O)cc1S(=O)(=O)NC(Cc1ccccc1)C(=O)O (stereo not given)
A) -4.53

Q) Identify measured cell number change corresponding to CCCC1CC(CCc2ccccc2)OS(=O)(=O)N1 (stereo not given)
A) 22.3

Q) # return recorded cell number change for entry O=C(CN1C(=O)CCS(=O)(=O)c2ccccc21)Nc1cccc(F)c1
A) 3.53

Q) State, in one line, measured cell number change of O=C(CN1C(=O)CCS(=O)(=O)c2ccccc21)Nc1ccc2c(c1)OCCO2
A) -1.7

Q) Indicate the recorded cell number change value for this molecule: CC(C)(C)C(=O)N1CCN(c2ccc(NC(=O)c3ccc([N+](=O)[O-])o3)cc2)CC1
A) 19.6

Q) Report cell number change for Fc1ccc(F)c(CN2CCN(c3ncccn3)CC2)c1
A) -0.405

----------
method-summary: qHTS Assay for Lipid Storage Modulators in Drosophila S3 Cells
experimental-parameters: BODIPY lipid droplet fluorescence, 18-24 h, cells fed with added oleic acid; series mostly up to 46.1 µM
The campaign covered roughly 320,000 compounds. About 2,100 (0.66%) were called active. Another 53% or so got no clear call; they are omitted. The call rests on the fitted dose curve; in most records, active means well fitted inhibition curve with a large enough effect in the signal ratio, with a control signal flat (not every such curve was filed as active); inconclusive means small, poorly fitted or top-dose-only effect, or effect the other way, or a change in a side signal; inactive means flat fitted curve, though single readings scatter; the % refers to the signal ratio. For the sample, actives were picked, then their nearest neighbours and some compounds at random.
Can you answer with just one of these options? active, inactive

Please review the following examples before continuing.
compound=CCN(CC)C(=O)COC(=O)c1ccc(O)cc1 group=active
compound="COc1cc(=O)[nH]c(SC(C)C(=O)Nc2nc3c(s2)CCCC3)n1 (centres undefined)" group=inactive
compound=CCOC(=O)CN(C(=O)COc1nc(C)cc(C)c1C#N)c1cccc(Cl)c1 group=inactive
compound=COc1ccc(CN(CC(=O)NC2CCCC2)C(=O)CCC(=O)Nc2nc(C)cs2)cc1 group=active

Q) Hi, do you know how CCOC(=O)C(O)(CC(=O)Nc1cc(F)ccc1C)C(F)(F)F (centres undefined) came out in this test?
A) inactive

Q) Recorded call for CCC(Sc1nc(C)cc(=O)[nH]1)C(=O)Nc1nc2c(s1)CCCC2 (centres undefined) ?
A) active

Q) Tell me the recorded outcome of this test for CCCN1Cc2cccc(C(=O)NCCCOC(C)C)c2C1=O .
A) inactive

Q) Name the outcome recorded for CC(C)CCNC(=O)CN(C(=O)CCC(=O)Nc1nccs1)C1CCCCC1 in the assay.
A) active

----------
method-summary: qHTS Assay for Lipid Storage Modulators in Drosophila S3 Cells;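 as to cell number change: cells counted by Cell Tracker Red CMTPX staining in the red channel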
experimental-parameters: BODIPY lipid droplet fluorescence, 18-24 h, cells fed with added oleic acid; measured here: cell count max response
The campaign covered roughly 320,000 compounds. About 2,100 (0.66%) were called active. Inconclusive results (about 53%) are left out. The sample holds actives, similar compounds and a random draw of the others, so the mix is not that of the screen.
cell number change values by entry
// return numeric value only (unit: %, not printed)

As a guide, the following entries are already answered.
compound="CCCOc1ccc(N2C(=O)CC(N3CCN(c4ccc([N+](=O)[O-])cc4)CC3)C2=O)cc1 (stereo not drawn)" reported_property="cell number change" value_reported=5.5
compound="CC(NC(=O)c1ccccc1)C(=O)NC1=NCCS1 (stereo not drawn)" reported_property="cell number change" value_reported=-3.51
compound=COCCC(=O)N1CCC(Oc2ccc(C(=O)NCc3cc(C)n(C)n3)cc2)CC1 reported_property="cell number change" value_reported=-14.5
compound=Cc1ccccc1CSc1nnc(NC(=O)Cc2cccs2)s1 reported_property="cell number change" value_reported=0.934
compound=COc1cccc(NC2=NC3(CCCCC3)N=C(N)N2)c1 reported_property="cell number change" value_reported=5.89

Q) Return value of cell number change for input Cn1nc([N+](=O)[O-])nc1Sc1ccc(Cl)cc1 , no commentary.
A) 9.49

Q) Complete the entry with cell number change for O=C(NCc1ccc2c(c1)OCO2)c1ccc(Br)s1
A) 15.1

Q) Input NS(=O)(=O)c1ccc(CCNC(=O)c2ccc3c(c2)OCCO3)cc1 , output reported cell number change.
A) 12.5

Q) Assign cell number change to the following record: Cc1ccsc1/C=N/N=C/c1sccc1C
A) -16.1

Q) Note down cell number change recorded for Cc1ccc(S(=O)(=O)N2CCCN(S(=O)(=O)c3ccc(C)cc3)CC2)cc1
A) -15.5

----------
method-summary: qHTS Assay for Lipid Storage Modulators in Drosophila S3 Cells;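 as to cell number change: cells counted by Cell Tracker Red CMTPX staining in the red channel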
experimental-parameters: BODIPY lipid droplet fluorescence, 18-24 h, cells fed with added oleic acid; measured here: cell count max response
About 2,100 (0.66%) of roughly 320,000 compounds were called active. Inconclusive results (about 53%) are left out. The entries come from a sample that favours actives as a whole.
Overview of recorded cell number change for various compounds
Write the number in % without appending the unit.

Q) Using known records, supply cell number change for CC(=O)N1c2ccc(S(=O)(=O)N3CCCC3)cc2CC1C(=O)NCc1ccc(N(C)C)cc1 (stereo unspecified)
A) 12.7

Q) Assign cell number change to the following record: COc1cccc(C(=O)Nc2cccc(NC(C)=O)c2)c1
A) -21

Q) Please look at this compound and report its cell number change: Cc1ccc(NS(=O)(=O)c2cc(C(=O)O)ccc2Cl)c(C)c1
A) -3.54

Q) Using the record for O=C(O)CNS(=O)(=O)Cc1ccccc1 , state its measured cell number change.
A) 2.83

Q) Return cell number change for the following compound: COc1cccc(C(=O)Nc2ccc3ccccc3c2)c1
A) 24

Q) Give me measured cell number change, please, for this compound: CCOc1ccc(CNC(=O)C2Cc3cc(S(=O)(=O)N4CCCCC4)ccc3N2C(C)=O)cc1 (stereo unspecified)
A) 8.5

Q) Identify measured cell number change corresponding to Cc1ccc(NS(=O)(=O)c2cc(C(=O)O)ccc2Cl)cc1
A) -3.53

Q) Let me know recorded cell number change for COc1cccc(C(=O)Nc2cccc(-c3ccccc3)c2)c1 , thanks.
A) 5.29

Q) Indicate its recorded cell number change; the compound in question is COC(c1ccccc1)c1nnc(CCC(=O)N2CCCCCCC2)o1 (stereo unspecified)
A) 7.76

Q) Identify measured cell number change corresponding to O=C(Nc1cccc(C(=O)Nc2cccc(Br)c2)c1)c1ccccc1
A) 0.351

Q) Quick one: give measured cell number change for COc1cccc(/C(C)=N/NC(=O)c2cc(-c3cccnc3)nc3ccccc23)c1
A) 11.2

----------
method-summary: qHTS Assay for Lipid Storage Modulators in Drosophila S3 Cells
experimental-parameters: BODIPY lipid droplet fluorescence, 18-24 h, cells fed with added oleic acid; series mostly up to 46.1 µM
Out of some 320,000 compounds screened, about 2,100 (0.66%) were called active. Another 53% or so got no clear call; they are omitted. Calls come from the whole dose curve; as a rule, active = well fitted inhibition curve with a large enough effect in the signal ratio, with a control signal flat (not every such curve was filed as active); inconclusive = small, poorly fitted or top-dose-only effect, or effect the other way, or a change in a side signal; inactive = flat fitted curve, though single readings scatter; the % refers to the signal ratio. The full list was thinned out, with actives kept by preference.
Please answer using one outcome listed in active, inactive

Observe how each entry below is paired with its result.
molecule="CCOc1cc(C(=O)N2CCC(CC3CC(c4cccc(Br)c4)=NO3)(C(=O)NCC3CCCCC3)CC2)cc(OCC)c1OCC (stereo unspecified)" group=active
molecule=O=C(NCc1ccncc1)NC1CCCCC1 group=inactive

Q) Would you mind telling me which call this test gave COc1cccc(/C=C/C(=O)OCC(=O)c2c[nH]c3ccccc23)c1 ?
A) active

Q) # lookup: test call for O=C(Nc1ccc(Cl)c(Cl)c1)OCCNC(=O)c1ccncc1
A) inactive

Q) Given COc1ccc(/C=C/C(=O)OCC(=O)c2c[nH]c3ccccc23)cc1 , state the outcome it received in this test.
A) inactive

Q) Per the assay record, what outcome was assigned to O=S(=O)(c1cccc(C(F)(F)F)c1)N1CCCC1c1cccnc1 (stereo unspecified) ?
A) inactive
